Biological target: T1, human transferrin receptor (hTfR) fused to EGFP, on CHO cells (human, UniProt P02786 1-760)
T1 construct: whole, on cells; also called human TfR; CHO-hTfR-EGFP; not shown: EGFP from pEGFP-C1 vector, fused to the N-terminal (intracellular) end of hTfR
T1 sequence (P02786 whole entry, the tested form may be a part): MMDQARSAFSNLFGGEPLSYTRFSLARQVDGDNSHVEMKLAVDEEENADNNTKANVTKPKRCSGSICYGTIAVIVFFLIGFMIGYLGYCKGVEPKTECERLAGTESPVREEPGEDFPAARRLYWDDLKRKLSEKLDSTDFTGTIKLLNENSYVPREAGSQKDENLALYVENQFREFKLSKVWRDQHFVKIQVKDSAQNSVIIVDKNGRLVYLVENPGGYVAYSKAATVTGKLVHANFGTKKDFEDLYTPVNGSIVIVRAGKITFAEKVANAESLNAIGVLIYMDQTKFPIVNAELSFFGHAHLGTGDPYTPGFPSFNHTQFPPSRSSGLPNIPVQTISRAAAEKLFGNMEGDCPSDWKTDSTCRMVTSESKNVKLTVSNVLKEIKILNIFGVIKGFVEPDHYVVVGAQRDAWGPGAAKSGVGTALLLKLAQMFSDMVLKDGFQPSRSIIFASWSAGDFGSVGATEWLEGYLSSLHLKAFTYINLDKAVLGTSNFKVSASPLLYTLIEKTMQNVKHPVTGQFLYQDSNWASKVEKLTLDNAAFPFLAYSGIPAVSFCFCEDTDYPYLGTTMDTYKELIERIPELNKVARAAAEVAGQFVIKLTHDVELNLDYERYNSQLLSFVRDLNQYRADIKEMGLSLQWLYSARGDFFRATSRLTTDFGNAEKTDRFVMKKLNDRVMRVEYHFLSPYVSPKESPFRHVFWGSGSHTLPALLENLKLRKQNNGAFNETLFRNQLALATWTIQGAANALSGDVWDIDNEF
Test: apparent Kd, flow cytometry, CHO cells
Checkbox rule: Kd lower than 6 nM = True; Kd not lower than 6 nM = False.

*Q* Hello, I'm reviewing records and need to know if Kd of C5^V22 (VHH) VHH: EVQLVESGGGVVQPGGSLKLSCVASGTDFSINFIRWYRQAPGKQREFVAGYTATGNTNYADSMKGRFTISRDNTKNAVYLQIDSLKPEDTAVYYCYMLDKWGQGTQVTVSS is below 6 nM. Could you check?
*A* True

*Q* Hello, I'm reviewing records and need to know if Kd of B8^V15 (VHH) VHH: EVQLVESGGGVVQPGGSLRLSCAASGEIFSINFMRWYRQAPGKQREWVAGFTRDDSTNYPDSAKGRFTISRDNAKNTVYLQIDSLKPEDTAVYYCYMLDTWGQGTQVTVSS is below 6 nM. Could you check?
*A* True

*Q* Hello, I'm reviewing records and need to know if Kd of VHH B (B8) (VHH) VHH: EVQLVESGGGVVQPGGSLRLSCAASGEIFSINFMRWYRQAPGKQREWVAGFTRDGSTNYPDSAKGRFTISRDNAKNTVYLQIDSLKPEDTAVYYCYMLDTWGQGTQVTVSS is below 6 nM. Could you check?
*A* True

*Q* Hello, I'm reviewing records and need to know if Kd of H1 (VHH, also called phage-H1 (as tracer)) VHH: EVQLVESGGGLVQPGGSLRLSCAASGFASHLYAIGWFRQAPGKEREKVSCISSNDGSTYYADSVKGRFTISRDTVKDMVYLQMNSLKPEDTAVYYCATDLTVHCFMAEYDWWGQGTQVTVSS is below 6 nM. Could you check?
*A* False

*Q* Hello, I'm reviewing records and need to know if Kd of C5^V32 (VHH) VHH: EVQLVESGGGVVQPGGSLKLSCVASGTDFSINFIRWYSQAPGKQREFVAGFTATGNTNYADSMKGRLTISRDNTKNAVYLQIDSLKPEDTAVYYCYMLGKWGQGTQVTVSS is below 6 nM. Could you check?
*A* False

*Q* Hello, I'm reviewing records and need to know if Kd of B8^V31 (VHH) VHH: EVQLVESGGGVVQPGGSLRLSCAASGEIKSINFMRWYRQAPGKQREWVAGFTRDGSTNYPDSAKGRFTISRDNAKNTVYLQIDSLKPEDTAVYYCYMLDTWGQGTQVTVSS is below 6 nM. Could you check?
*A* False

*Q* Hello, I'm reviewing records and need to know if Kd of B8^V1 (VHH) VHH: EVQLVESGGGVVQPGGSLRLSCAADGEIFSINFMRWYRQAPGKQREWVAGFTRDGSTNYPDSAKGRFTISRDNAKNTVYLQIDSLKPEDTAVYYCYMLDTWGQGTQVTVSS is below 6 nM. Could you check?
*A* False
